// reported growth inhibition per item
test details: NCI Yeast Anticancer Drug Screen. Data for the wt1 strain (AID 149);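 further: 0% = growth of vehicle-treated wt1 cultures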
stated conditions: S. cerevisiae wt1 strain (SPY 50644) growth inhibition; at 100.0 µM; hits give high values
The panel holds about 79,000 compounds, 15% with a hit somewhere; the sample as a whole holds those more often.
measurement kind: growth inhibition (%)

>>> print(df.to_string())
                                    compound  measured
 0              CCc1[nH]nc(C(N)=O)c1N=NN(C)C         1
 1                ClCCn1c(CCl)nc2ccc(Cl)cc21        97
 2  CCN(CC)CCNC(=O)c1nn(-c2ccc(Cl)cc2)c2c1CCc1cc(OC)ccc1-2        58
 3  O=C1C(Cl)=C(Cl)C(Cl)(Cl)C(Cl)C1(Cl)Cl (centres undefined)        99
 4             O=C1C=CC(=Nc2ccccc2)c2ccccc21        45
 5       CC(C)(O)c1ccccc1C(c1ccccc1)c1ccccc1         4
 6  COc1ccc2c(c1)[nH]c1c(/C=C/c3ccccc3)nccc12        97
 7                  O=NN(CCCl)C(=O)NC1CCCCC1        -5
 8       CN(C)c1ccc(/C=C/c2ccnc3ccccc23)cc1N        -7
 9  CC(=O)Oc1ccc(N2C(=O)C3c4[nH]c5ccccc5c4C4CCC(C(C)(C)C)CC4C3C2=O)cc1 (centres undefined)        95
10  O=C1c2ccccc2C(=O)c2cc(S(=O)(=O)Nc3ccccc3)ccc21         4
11       CCOC(=O)CNC(=O)c1[nH]cnc1/N=N/N(C)C        98
12      O=Nn1c2ccccc2c2cc([N+](=O)[O-])ccc21        92
13                    Nc1ccc2c(c1)sc1ccccc12        99
14          S=C1SCN(CCc2ccccc2)CN1CCc1ccccc1        10
15                C=C1N(C)c2ccc(Cl)cc2C1(C)C        92
16               Nc1cc(F)cc2c1-c1ccc(F)cc1C2        90
17          Clc1nc(C(Cl)Cl)nc2sc3c(c12)CCCC3        56
18  Clc1cc(Cc2ccc(N=C/C=C/c3ccccc3)c(Cl)c2)ccc1N=C/C=C\c1ccccc1        14
19  N#C/C(=C/N1C(=O)/C(=C/c2ccc([N+](=O)[O-])cc2)SC1=S)c1nc2ccccc2s1        59
20     S=c1[nH]c2c(Cl)c(Cl)c(Cl)c(Cl)c2[nH]1        96
21  NP1(Oc2ccc(F)cc2)=NP(N)(Oc2ccc(F)cc2)=NP(Oc2ccc(F)cc2)(Oc2ccc(F)cc2)=N1 (centres undefined)        48
22      CCC(C)(c1ccc(O)c(C)c1)c1ccc(O)c(C)c1        99
23  CNc1nc(C)nc2c1cnn2-c1ccc([N+](=O)[O-])cc1        15

* * *

test details: NCI Yeast Anticancer Drug Screen. Data for the mlh1 rad18 strain (AID 175)
stated conditions: S. cerevisiae mlh1 rad18 strain growth inhibition; at 50.0 µM (retest, dose inferred, filed as 5.0); hits give high values
This is part of a sample that, as a whole, favours compounds with a hit. Of some 79,000 tested, about 15% had one in any assay.
// reported growth inhibition per item
measurement kind: growth inhibition (%)

>>> print(df.to_string())
                                    molecule  readout_units  measured
 0        O=C(/C=C/c1cccc(Br)c1)c1ccc(Cl)cc1              %        56
 1      O=Nn1c2ccccc2c2cc([N+](=O)[O-])ccc21              %        97
 2  COc1ccc2c(c1)[nH]c1c(/C=C/c3ccccc3)nccc12              %        95
 3  CN(C)CCN1C(=O)c2cccc3cc([N+](=O)[O-])cc(c23)C1=O              %        45
 4  O=[N+]([O-])c1cccc2nc3ccccc3c(NCCc3cccc[n+]3[O-])c12              %        98
 5                 COc1ccc(N2CN(C)CSC2=S)cc1              %        97
 6  CN[C@@H]1C[C@H]2O[C@@](C)([C@@H]1OC)n1c3ccccc3c3c4c(c5c6ccccc6n2c5c31)C(=O)N[C@@H]4O              %        31
 7            C/C(=N\NC(=S)NC1CCCC1)c1ccccn1              %        98
 8  CC1OC(OC2CCCc3c(O)c4c(c(O)c32)C(=O)c2ccccc2C4=O)CC(N)C1O (stereo unspecified)              %        99
 9  COc1cc2c(cc1C[N+](C)(C)CSc1ccccc1)-c1ccccc1CC2              %        99
10                 C=Cc1cnc([N+](=O)[O-])n1C              %        90

* * *

test details: NCI Yeast Anticancer Drug Screen. Data for the wt2 strain (AID 169);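 further: 0% = growth of vehicle-treated yeast cultures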
stated conditions: S. cerevisiae wt2 strain growth inhibition; at 11.0 µM; hits give high values
This is part of a sample that, as a whole, favours compounds with a hit. Of some 79,000 tested, about 15% had one in any assay. Residues, ends and D or L forms follow the SMILES beside them. *: point of attachment. CH2Cl = ClC*
// reported growth inhibition per item
measurement kind: growth inhibition (%)

In [3]: df
Out[3]:
                                    molecule   measurement_kind  measured
 0        COC(=O)c1oc([N+](=O)[O-])c(Cl)c1Cl  growth inhibition        74
 1              Clc1c(Cl)c(Cl)c2n[nH]nc2c1Cl  growth inhibition        -7
 2  CCCCC(CC)C(=O)Oc1ccc(C(=O)c2ccccc2)c(O)c1 (configuration not stated)  growth inhibition        -4
 3                    O=Nn1c2ccccc2c2ccccc21  growth inhibition       -28
 4  CCCCCCCCCCCCCC(=O)OC(C)CCC1CCCO1 (configuration not stated)  growth inhibition        -2
 5  CC(=O)NC(CC(C)C)C(=O)NC(Cc1ccccc1)C(=O)CCl (stereo not drawn) (Ac-Leu-Phe-CH2Cl; configuration not given here)  growth inhibition        -2
 6            Cc1ccc2occ/c(=N\Nc3ccccc3)c2c1  growth inhibition         7
 7     CCNc1ccc2c(c1)C(=O)N(OS(C)(=O)=O)C2=O  growth inhibition         1
 8                     On1cnc(=S)c2[nH]cnc21  growth inhibition       -11
 9           COc1ccc(N)c2c1C(=O)c1ccccc1C2=O  growth inhibition        -6
10  CCCCCC#CCOC(=O)C(=[N+]=[N-])P(=O)(c1ccccc1)c1ccccc1  growth inhibition         5
11  CC1OC(OC2CCCc3c(O)c4c(c(O)c32)C(=O)c2ccccc2C4=O)CC(N)C1O (configuration not stated)  growth inhibition        61

* * *

test details: NCI Yeast Anticancer Drug Screen. Data for the rad18 strain (AID 177)
stated conditions: S. cerevisiae rad18 mutant growth inhibition; at 3.7 µM; hits give high values
This is part of a sample that, as a whole, favours compounds with a hit. Of some 79,000 tested, about 15% had one in any assay.
measurement kind: growth inhibition (%)

>>> print(df.to_string())
                            chemical_string  readout_units  measured
0               c1ccc2c(c1)Cn1c-2nc2ccccc21              %        -4
1  COc1ccc(/C=C(\NC(=O)c2ccccc2)C(=O)NN(C)c2ccnc3cc(Cl)ccc23)cc1OC              %         5
2      O=C(/C=C/c1cccc2ccccc12)c1ccc(Cl)cc1              %         9
3  CC(C)(C)c1ccc(O)c(C(c2ccc([N+](=O)[O-])cc2)c2cc(C(C)(C)C)ccc2O)c1              %        41
4     CCOC(=O)[C@]1(Br)CC[C@@]1(Br)C(=O)OCC              %       -43

* * *

// reported growth inhibition per item
test details: NCI Yeast Anticancer Drug Screen. Data for the rad50 strain (AID 155);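 further: 0% = growth of vehicle-only cultures of the same strain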
stated conditions: S. cerevisiae rad50 strain growth inhibition; at 50.0 µM (retest, dose inferred, filed as 5.0); hits give high values
The panel holds about 79,000 compounds, 15% with a hit somewhere; the sample as a whole holds those more often. Active and inactive are the calls of the source. Rule as the data show it: active = growth inhibition above about 70%; inactive = the rest.
measurement kind: growth inhibition

In [3]: df
Out[3]:
                                    molecule        measured
 0  O=[N+]([O-])c1cccc2nc3ccccc3c(NCCc3cccc[n+]3[O-])c12    96% (active)
 1      O=c1[nH]cc(/C=N\Nc2ccccc2)c(=O)[nH]1  40% (inactive)
 2  CC(=O)N1C(=O)/C(=C\C(=O)c2ccc([N+](=O)[O-])cc2)c2ccccc21    98% (active)
 3  O=C1c2cccc3cc([N+](=O)[O-])cc(c23)C(=O)N1CCN1CCCC1    95% (active)
 4  O=C1OC2C(O)COC2(OCc2c[nH]c3ccccc23)C1O (stereo not drawn) (tested in a mixture with another compound)  15% (inactive)
 5                    O=C1c2ccccc2CCC1(Br)Br    99% (active)
 6                 C=Cc1cnc([N+](=O)[O-])n1C    87% (active)
 7  CN(C)CC1CCCc2ccccc2C1=O (stereo not drawn)  40% (inactive)
 8             NC(N)=N/N=C/c1cc(Cl)cc(Cl)c1O    95% (active)
 9  COc1ccc2c(c1)[nH]c1c(/C=C/c3ccccc3)nccc12    93% (active)
10  O=C(NCCCCCN1CCC2(CCCCC2)CC1)C(C1CCCCC1)C1CCCCC1    99% (active)
11  CCN(CC)CC(O)C1CCC(c2ccccc2)CC1 (stereo not drawn)    78% (active)
12  COc1ccc(/C=C2\SC(=S)N(C=C3C(=O)NC(=S)NC3=O)C2=O)cc1OC  65% (inactive)
13           CCOC(=O)Nc1ccc2c(c1)Cc1ccccc1-2   2% (inactive)
14               Cn1c2nc3ccccc3c-2nc2ccccc21    97% (active)
15                S=c1nc(Cl)cc2[nH]c(Cl)cn12    75% (active)
16  N#Cc1sc2c(c1OC(=O)c1ccco1)c(=O)n(-c1ccccc1)c(=S)n2-c1ccccc1    94% (active)
17  CC(=O)N1C(=O)/C(=C\C(=O)c2ccc(Cl)cc2)c2ccccc21    96% (active)
18  OCCNCCOc1ccc(/C(=C(/Cl)c2ccccc2)c2ccccc2)cc1    98% (active)
19              Clc1c(Cl)c(Cl)c2n[nH]nc2c1Cl   100% (active)
20  O=C1c2c(O)cccc2-c2nn(CCNCCO)c3ccc(NCCNCCO)c1c23    79% (active)
21    O=[N+]([O-])/C(C(Cl)=C(Cl)Cl)=C1/OCCS1   100% (active)
22               c1ccc2c(c1)Cn1c-2nc2ccccc21    74% (active)
23  Cc1ccc2c(ccc(/C=C/c3ccc(O)c4ncccc34)[n+]2C)c1    93% (active)
24    COc1ccc(/C(C#N)=C/c2ccc(OC)c(OC)c2)cc1    83% (active)
25  Nc1ccc(S(=O)(=O)Nc2ccc(Nc3c4ccccc4nc4ccccc34)cc2)cc1    87% (active)
26  O=C1c2ccccc2C(=O)c2cc(S(=O)(=O)Nc3ccccc3)ccc21  49% (inactive)
27                C=C1N(C)c2ccc(Cl)cc2C1(C)C    99% (active)
28           CC(C)c1[nH]nc(C(N)=O)c1N=NN(C)C    83% (active)
29         CC(=O)Oc1ccc(C(=O)c2ccccc2)c(O)c1    95% (active)
30           OCCN(CCO)c1ccc2c(c1)Cc1ccccc1-2  48% (inactive)
31              O=C1CSC(=S)N1Cc1ccc(Cl)cc1Cl    98% (active)
32  Cc1ccc(Nc2c3c(c(C#N)c4nc5ccccc5n24)CCCC3)cc1    74% (active)
33            CCC(=O)Oc1ccc(/C=N/NC(N)=S)nc1   6% (inactive)
34       O=S(=O)(c1cc(Cl)ccc1O)c1cc(Cl)ccc1O    99% (active)
35     CCNc1ccc2c(c1)C(=O)N(OS(C)(=O)=O)C2=O  18% (inactive)
36  CC[C@@]1(OC(=O)CN(C)C)C(=O)OCc2c1cc1n(c2=O)Cc2cc3c(N)cccc3nc2-1    90% (active)
37  CN(C)Cc1cccc(CN(C)C)[c]1[Sn]([Br])([c]1ccccc1)[c]1ccccc1    94% (active)
38          COC(=O)c1n[nH]c(C)c1N=NN(C)CCC#N    96% (active)
39        N#CSC1CCCCNC1=O (stereo not drawn)  26% (inactive)
40      O=C(/C=C/c1cccc2ccccc12)c1ccc(Cl)cc1    98% (active)
41  COc1ccc(N=Nc2ccc3oc(=O)c(C(=O)Nc4ccccc4)cc3c2)cc1    95% (active)
42        O=C(/C=C/c1cccc(Br)c1)c1ccc(Cl)cc1  47% (inactive)
43               N#C/C(=C\c1ccccc1)c1ccccc1F    89% (active)
44  Cc1c2cc[n+](CCN3CCCCC3)cc2c(C)c2c1[nH]c1ccc(O)cc12    97% (active)
45             CCCc1[nH]nc(C(N)=O)c1N=NN(C)C    81% (active)
46  Cc1ccccc1NC(=O)Cc1csc(N/N=C2\NC(=O)/C(=C/c3cccc([N+](=O)[O-])c3)S2)n1  10% (inactive)
47            C/C(=N\NC(=S)NC1CCCC1)c1ccccn1    99% (active)
